System: SEM cells
Assay: cell viability relative to DMSO control; higher = less cytotoxic
Conditions: RPMI 5 mM glucose + 10% dialyzed FBS; 48 h; 0.000781 µM
Task for the reader: assign each of the following compounds its reported cell viability.
Answer in %, number only, no unit symbol.

Prompt: Any idea what its cell viability is? The compound is `COC/1=C/C=C2\C(=C/C1=O)[C@H](CCC3=CC(=C(OC)C(=C23)OC)OC)NC(C)=O`
Response: 20.9

Prompt: Subsequent entry: `O=C(c1ccc(F)c(F)c1Nc1ccc(I)cc1F)N1CC(O)([C@@H]2CCCCN2)C1`
Response: 82.8

Prompt: Subsequent entry: `O=C(O)/C=C/c1ccc(O)c(O)c1`
Response: 99.2

Prompt: Subsequent entry: `N[S+](=O)([O-])c1cccc2c1C(=O)c1cccc(O)c1C2=O`
Response: 89.4

Prompt: Subsequent entry: CC1=C(CC(=O)O)c2cc(F)ccc2/C1=C\c1ccc([S+](C)[O-])cc1 (stereo unspecified)
Response: 126

Prompt: Subsequent entry: `Cc1cnc(C(=O)O)c[n+]1[O-]`
Response: 121

Prompt: Subsequent entry: `NC(=O)c1cccc2cn(-c3ccc([C@@H]4CCCNC4)cc3)nc12`
Response: 94.3

Prompt: Subsequent entry: `CN(C)c1nc(Cc2ccc(NC(=O)c3ccc4ccccc4c3)cc2)nc(Cl)c1CC(=O)O`
Response: 119

Prompt: Subsequent entry: `CCC(=C/[C@H](C)C/C=C/C(C)=C/[C@@H](C)C(=O)[C@@H](C)[C@H](O)[C@@H](C)C/C(C)=C/C(=O)O)/C=C/[C@@H]1OC(=O)C=C[C@@H]1C`
Response: 84

Prompt: Subsequent entry: CCCCC(C=O)NC(=O)C(CC(C)C)NC(=O)OCc1ccccc1 (stereo unspecified)
Response: 93.8

Prompt: Subsequent entry: `CN(C)CC[C@H](c1ccc(Cl)cc1)c1ccccn1`
Response: 78.9

Prompt: Subsequent entry: `CCCCCCCCCC(=O)N[C@@H](Cc1c[nH]c2ccccc12)C(=O)N[C@H](CC(N)=O)C(=O)N[C@@H](CC(=O)O)C(=O)N[C@@H]1C(=O)NCC(=O)N[C@@H](CCCN)C(=O)N[C@@H](CC(=O)O)C(=O)N[C@H](C)C(=O)N[C@@H](CC(=O)O)C(=O)NCC(=O)N[C@H](CO)C(=O)N[C@@H]([C@@H](C)CC(=O)O)C(=O)N[C@@H](CC(=O)c2ccccc2N)C(=O)O[C@@H]1C`
Response: 102

Prompt: Subsequent entry: `C[S+](=O)([O-])c1ccc(-c2cnc(N)c(C(=O)Nc3ccccc3)n2)cc1`
Response: 98.5

Prompt: Subsequent entry: `c1ccc(CNc2nc(N3CCOc4ccccc43)nc3c2CCCC3)cc1`
Response: 75

Prompt: Subsequent entry: `NC(=O)c1cccc2nc(-c3ccc([C@H]4CCCN4)cc3F)[nH]c12`
Response: 86.2

Prompt: Subsequent entry: `CCO[C@@H]1OC(=O)C[C@@H]1NC(=O)[C@@H]1CCCN1C(=O)[C@@H](NC(=O)c1ccc(N)c(Cl)c1)C(C)(C)C`
Response: 103

Prompt: Subsequent entry: `NCCCCNCCCN`
Response: 88

Prompt: Subsequent entry: `Cn1c(=O)n(-c2ccc(C(C)(C)C#N)cc2)c2c3cc(-c4cnc5ccccc5c4)ccc3ncc21`
Response: 98.6

Prompt: Subsequent entry: `CC(C)c1ccc(Cn2ccc3c4c(N)nc(NC5CC5)nc4ccc32)cc1`
Response: 97.7

Prompt: Subsequent entry: `COC1=CC=CC(=C1N)\C2=C\C(=O)C3=C(O2)C=CC=C3`
Response: 106

Prompt: Subsequent entry: `CC1(C)CNc2cc(NC(=O)c3cccnc3NCc3ccncc3)ccc21`
Response: 111

Prompt: Subsequent entry: `COc1ccc(Nc2nccc(NCCO)n2)cc1`
Response: 64.5

Prompt: Subsequent entry: `Cc1cc(C(=O)N2CCN(c3cccc(Cl)c3)CC2)n(-c2ccccc2)n1`
Response: 105

Prompt: Subsequent entry: `COC1=CC=C(C=C1O)C/2=C/C(=O)C3=C(O2)C=C(O)C=C3O`
Response: 97.6

Prompt: Subsequent entry: `Cc1ccc([S+](=O)([O-])Nc2nc3ccccc3nc2Nc2ccc3nsnc3c2)cc1`
Response: 95

Prompt: Subsequent entry: CC(O)(C#Cc1ccc2c(c1)N(c1nc(N)ncc1Cl)CC2)c1nccs1 (stereo unspecified)
Response: 117

Prompt: Subsequent entry: `CN(C)CCOc1ccc(-c2nc(-c3ccncc3)c(-c3ccc4c(c3)CC/C4=N\O)[nH]2)cc1`
Response: 115

Prompt: Subsequent entry: `C/C(O)=C(\C#N)C(=O)Nc1cc(Br)ccc1Br`
Response: 112

Prompt: Subsequent entry: `COc1cc(OC)c(OC)cc1C=O`
Response: 113

Prompt: Subsequent entry: `CC[C@H](C)C(=O)O[C@H]1C[C@H](O)\C=C2\C=C/[C@H](C)[C@H](CC[C@@H](O)C[C@@H](O)CC(O)=O)[C@@H]12`
Response: 123

Prompt: Subsequent entry: `NC/1=N/C(=O)N(/C=C1F)[C@H]2CS[C@H](CO)O2`
Response: 101

Prompt: Subsequent entry: `CNCc1ccc(-c2[nH]c3cc(F)cc4c3c2CCNC4=O)cc1`
Response: 94.5

Prompt: Subsequent entry: `COc1ccc([C@@H]2CC(=O)c3c(O)cc(O[C@@H]4O[C@H](CO[C@@H]5O[C@@H](C)[C@H](O)[C@@H](O)[C@H]5O)[C@@H](O)[C@H](O)[C@H]4O)cc3O2)cc1O`
Response: 112

Prompt: Subsequent entry: `C[C@]12CC[C@@H]3c4ccc(O)cc4CC[C@H]3[C@@H]1C[C@@H](O)[C@@H]2O`
Response: 127

Prompt: Subsequent entry: COc1ccc(C2Sc3ccccc3N(CCN(C)C)C(=O)C2OC(C)=O)cc1 (stereo unspecified)
Response: 87.2

Prompt: Subsequent entry: `CN[C@@H](C)C(=O)N[C@H]1CN(C(=O)CC(C)C)CC[C@H]2CC[C@@H](C(=O)NC(c3ccccc3)c3ccccc3)N2C1=O`
Response: 95.5
